# assay.explanation: Dark toxicity against mouse PAM212 cells assessed as cell growth inhibition incubated for 5 days under dark condition by coulter counting method
# Format: cell-based
Under this convention, y denotes IC50 at 5 days strictly below 7 µM and n denotes IC50 at 5 days at or above 7 µM.

- compound: "CCN(CC)/N=N/c1c2ccoc2c(OC)c2oc(=O)ccc12"
  discrete.label: "y"
- compound: "COc1c2occc2c(NC(=O)c2ccc(N=[N+]=[N-])cc2)c2ccc(=O)oc12"
  discrete.label: "n"
- compound: "COc1c2occc2c(NC(=O)NCCCl)c2ccc(=O)oc12"
  discrete.label: "n"
- compound: "COc1c2occc2c(/N=N/N(C)C)c2ccc(=O)oc12"
  discrete.label: "n"
- compound: "CCN(C)/N=N/c1c2ccoc2c(OC)c2oc(=O)ccc12"
  discrete.label: "n"
- compound: "COc1c2occc2cc2ccc(=O)oc12 [METHOXSALEN]"
  discrete.label: "n"
- compound: "COc1c2occc2c(NC(=O)CCl)c2ccc(=O)oc12"
  discrete.label: "y"
